molecular target: T1, gastrin releasing peptide receptor (GRP-R) (human, UniProt P30550 1-384); assay: 125I-BBN competition, PC3 cells
T1 construct: whole, on cells; also called GRP receptor; BB2
T1 sequence (P30550 whole entry): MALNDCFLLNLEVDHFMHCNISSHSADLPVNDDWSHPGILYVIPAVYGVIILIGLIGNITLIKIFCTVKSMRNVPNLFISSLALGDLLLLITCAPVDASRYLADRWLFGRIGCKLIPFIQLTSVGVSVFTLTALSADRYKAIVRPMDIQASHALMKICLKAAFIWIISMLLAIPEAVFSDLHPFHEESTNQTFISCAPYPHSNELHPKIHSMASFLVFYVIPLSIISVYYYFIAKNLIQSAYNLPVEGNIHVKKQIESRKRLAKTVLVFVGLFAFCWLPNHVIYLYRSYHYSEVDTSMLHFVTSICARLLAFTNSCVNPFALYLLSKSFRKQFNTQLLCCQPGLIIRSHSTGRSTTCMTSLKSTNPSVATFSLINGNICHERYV

binder	IC50, nM
QWAVGHLM (N-term: N,N-dimethylglycine-Ser-Cys(Acm)-Gly-Ser-Lys; C-term amide) [N,N-dimethylglycine-Ser-Cys(Acm)-Gly-SK-QWAVGHLM-NH2]	2
